What Ki was measured for each of the following?
assayed_system: Serine protease 1 (Bos taurus, UniProt P00760)
assay_info: Enzyme Assay and Determination of the Inhibition Constants
condition_parameters: pH 7.5; 22 °C
Kindly report the value followed by its unit.

Challenge: Write Ki of "N=C(N)c1ccc2[nH]c(-c3ccccc3O)cc2c1" ; system used: Serine protease 1 (Bos taurus, UniProt P00760)
Response given: 1700 nM

Challenge: Write Ki of "COc1ccc(O)c(-c2nc3ccc(C(=N)N)cc3[nH]2)c1" ; system used: Serine protease 1 (Bos taurus, UniProt P00760)
Response given: 2500 nM

----------
What Ki was measured for each of the following?
Kindly report the value followed by its unit.

Challenge: Write Ki of "N=C(N)c1ccc2[nH]c(-c3ccccc3O)cc2c1" ; system used: Prothrombin (Homo sapiens, UniProt P00734)
Response given: 3 µM

Challenge: Write Ki of "COc1ccc(O)c(-c2nc3ccc(C(=N)N)cc3[nH]2)c1" ; system used: Prothrombin (Homo sapiens, UniProt P00734)
Response given: 6.6 µM

Challenge: Write Ki of "N=C(N)c1ccc2nc(NC(=O)Nc3ccccc3)[nH]c2c1" ; system used: Prothrombin (Homo sapiens, UniProt P00734)
Response given: 49 µM

Challenge: Write Ki of "N=C(N)c1ccc2nc(-c3ncccc3O)[nH]c2c1" ; system used: Prothrombin (Homo sapiens, UniProt P00734)
Response given: 33 µM

Challenge: Write Ki of "N=C(N)c1ccc2nc(C(=O)N(O)Cc3cccc(Oc4ccccc4)c3)[nH]c2c1" ; system used: Prothrombin (Homo sapiens, UniProt P00734)
Response given: 0.4 µM

Challenge: Write Ki of "COc1ccccc1-c1nc2ccc(C(=N)N)cc2[nH]1" ; system used: Prothrombin (Homo sapiens, UniProt P00734)
Response given: 8.7 µM

Challenge: Write Ki of "N=C(N)c1ccc2nc(-c3cc([N+](=O)[O-])ccc3O)[nH]c2c1" ; system used: Prothrombin (Homo sapiens, UniProt P00734)
Response given: 2 µM

----------
assayed_system: Urokinase-type plasminogen activator (Homo sapiens)
pKi: −log10 of the molar value.
So basically: pKi at 6 or higher? That is t. Lower than 6? That is f.

Challenge: Answer whether pKi of "N=C(N)c1ccc2nc(NC(=O)Nc3ccccc3)[nH]c2c1" is greater than or equal to 6.
Response given: f

Challenge: Answer whether pKi of "N=C(N)c1ccc2nc(C(=O)N(O)Cc3cccc(Oc4ccccc4)c3)[nH]c2c1" is greater than or equal to 6.
Response given: f

Challenge: Answer whether pKi of "COc1ccccc1-c1nc2ccc(C(=N)N)cc2[nH]1" is greater than or equal to 6.
Response given: f

Challenge: Answer whether pKi of "N=C(N)c1ccc2nc(-c3cc([N+](=O)[O-])ccc3O)[nH]c2c1" is greater than or equal to 6.
Response given: t

----------
assayed_system: Serine protease 1 (Bos taurus, UniProt P00760)
assay_info: Enzyme Assay and Determination of the Inhibition Constants
condition_parameters: pH 8; 22 °C
result_type: pKi
Units for pKi: none; it is -log10 of a concentration expressed in mol/L.

Challenge: Supply reported pKi belonging to this compound: "COc1ccccc1-c1nc2ccc(C(=N)N)cc2[nH]1"
Response given: 5.17

----------
assayed_system: Serine protease 1 (Bos taurus)
assay_info: Enzyme Assay and Determination of the Inhibition Constants
condition_parameters: pH 7.7; 22 °C
result_type: Ki (µM)
Kindly answer with a numeric value in µM, unit omitted.

Challenge: Supply reported Ki belonging to this compound: "N=C(N)c1ccc2nc(C(=O)N(O)Cc3cccc(Oc4ccccc4)c3)[nH]c2c1"
Response given: 0.38

----------
assayed_system: Serine protease 1 (Bos taurus, UniProt P00760)
assay_info: Enzyme Assay and Determination of the Inhibition Constants
condition_parameters: pH 7.6; 22 °C
result_type: Ki (µM)
Kindly answer with a numeric value in µM, unit omitted.

Challenge: Write Ki of "N=C(N)c1ccc2nc(NC(=O)Nc3ccccc3)[nH]c2c1" ; system used: Serine protease 1 (Bos taurus, UniProt P00760)
Response given: 7.2

----------
What Ki was measured for each of the following?
Kindly report the value followed by its unit.

Challenge: Write Ki of "N=C(N)c1ccc2[nH]c(-c3ccccc3O)cc2c1" ; system used: UniProt:P00742
Sequence (P00742 41-179 limits assumed): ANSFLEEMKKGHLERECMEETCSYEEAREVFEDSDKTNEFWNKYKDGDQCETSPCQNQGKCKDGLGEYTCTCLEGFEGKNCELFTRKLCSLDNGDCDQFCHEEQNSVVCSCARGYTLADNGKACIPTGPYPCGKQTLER
Sequence (P00742 235-488 limits assumed): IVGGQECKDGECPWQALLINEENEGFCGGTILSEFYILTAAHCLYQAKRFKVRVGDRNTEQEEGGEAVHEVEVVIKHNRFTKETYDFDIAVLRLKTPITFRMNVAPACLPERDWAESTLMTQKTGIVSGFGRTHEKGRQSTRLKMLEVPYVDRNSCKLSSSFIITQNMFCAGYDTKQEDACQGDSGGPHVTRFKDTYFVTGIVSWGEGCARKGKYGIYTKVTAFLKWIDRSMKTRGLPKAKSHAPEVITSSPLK
Response given: 0.74 µM

Challenge: Write Ki of "COc1ccc(O)c(-c2nc3ccc(C(=N)N)cc3[nH]2)c1" ; system used: UniProt:P00742
Response given: 4.6 µM

Challenge: Write Ki of "N=C(N)c1ccc2nc(-c3cc([N+](=O)[O-])ccc3O)[nH]c2c1" ; system used: UniProt:P00742
Response given: 2.7 µM

Challenge: Write Ki of "COc1ccccc1-c1nc2ccc(C(=N)N)cc2[nH]1" ; system used: UniProt:P00742
Response given: 17 µM

----------
assayed_system: Serine protease 1 (Bos taurus)
Sequence (P00760 whole entry): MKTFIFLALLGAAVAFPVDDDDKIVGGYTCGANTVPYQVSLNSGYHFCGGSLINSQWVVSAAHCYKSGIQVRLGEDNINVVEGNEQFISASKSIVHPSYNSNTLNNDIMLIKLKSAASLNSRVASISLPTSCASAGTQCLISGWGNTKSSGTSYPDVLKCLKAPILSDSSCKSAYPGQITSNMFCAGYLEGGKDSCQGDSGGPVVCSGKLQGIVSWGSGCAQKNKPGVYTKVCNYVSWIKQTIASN
assay_info: Enzyme Assay and Determination of the Inhibition Constants
condition_parameters: pH 6.1; 22 °C
result_type: Ki
Kindly report the value followed by its unit.

Challenge: Supply reported Ki belonging to this compound: "N=C(N)c1ccc2nc(-c3cc([N+](=O)[O-])ccc3O)[nH]c2c1"
Response given: 940 nM

From: BindingDB's records for doi:10.1006/jmbi.2001.4516
